target: Urea transporter 2 (Rattus norvegicus)
OBSERVED_PROPERTY: IC50 (µM)

a = [H]/N=C1/NC(=O)/C(=C\c2cccc(OC)c2OC)S1
b = COc1cc(/C=C2/SC(=N)NC2=O)ccc1O
Hi there! Just curious which has the higher IC50 between a and b . Reply briefly: the label of your chosen item.
b

* * *

biological target: Urea transporter 2 (Rattus norvegicus, UniProt Q62668); test: UT-A1 Inhibition Assay
Sequence (Q62668 whole entry): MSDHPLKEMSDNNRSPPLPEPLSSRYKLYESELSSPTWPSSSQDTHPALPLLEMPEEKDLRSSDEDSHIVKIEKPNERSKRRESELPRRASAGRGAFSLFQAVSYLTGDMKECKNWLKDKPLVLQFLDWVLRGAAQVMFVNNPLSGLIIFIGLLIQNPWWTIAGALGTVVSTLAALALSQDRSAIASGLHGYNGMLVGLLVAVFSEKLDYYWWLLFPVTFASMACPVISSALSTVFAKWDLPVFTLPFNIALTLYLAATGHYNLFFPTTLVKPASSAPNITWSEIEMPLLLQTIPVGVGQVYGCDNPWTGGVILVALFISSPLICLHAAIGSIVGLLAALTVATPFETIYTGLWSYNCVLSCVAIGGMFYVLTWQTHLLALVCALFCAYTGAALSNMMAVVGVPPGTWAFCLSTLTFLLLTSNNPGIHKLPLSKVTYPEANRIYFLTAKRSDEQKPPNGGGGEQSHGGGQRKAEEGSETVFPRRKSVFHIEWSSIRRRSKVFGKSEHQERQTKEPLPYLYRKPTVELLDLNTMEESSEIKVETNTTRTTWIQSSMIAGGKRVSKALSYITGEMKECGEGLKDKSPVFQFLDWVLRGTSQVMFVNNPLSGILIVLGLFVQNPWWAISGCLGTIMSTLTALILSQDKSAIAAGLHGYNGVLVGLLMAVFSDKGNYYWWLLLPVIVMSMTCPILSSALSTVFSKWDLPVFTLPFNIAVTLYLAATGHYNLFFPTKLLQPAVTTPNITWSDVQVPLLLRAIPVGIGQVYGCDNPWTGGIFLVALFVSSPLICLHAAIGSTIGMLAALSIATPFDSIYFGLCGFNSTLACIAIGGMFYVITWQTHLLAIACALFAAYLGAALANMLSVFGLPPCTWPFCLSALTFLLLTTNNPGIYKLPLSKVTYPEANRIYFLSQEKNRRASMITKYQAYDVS
pIC50: −log10 of the molar value.
OBSERVED_PROPERTY: pIC50

a = CCOc1ccc(Nc2cc(C(=O)N3CCCCC3)nc3c(OC)cccc23)cc1
b = COc1ccc(Nc2cc(C(=O)N3CCSCC3)nc3c(OC)cccc23)cc1Cl
Could you tell me which of these two has the smaller pIC50 figure? First: a Second: b Reply briefly: the label of your chosen item.
b
(b: 4.72, a: 5.48)

a = CSc1nc(Nc2ccc(Nc3ccccc3)cc2)nc(SC)n1
b = COc1cccc2c(Nc3ccc(C)c(F)c3)cc(C(=O)N3CCCCC3)nc12
Hi there! Just curious which has the higher pIC50 between a and b . Reply briefly: the label of your chosen item.
b
(b: 4.60, a: 4.35)

* * *

The next entries give measured IC50 for Urea transporter 2 (Rattus norvegicus).

Please review the following examples before continuing.
COMPOUND: COc1cccc(Nc2nc(Nc3ccc(C)cc3)nc(Sc3ccc(C)cc3)n2)c1
IC50: > 50 µM
//
COMPOUND: CNc1nc2c(S(=O)(=O)c3ccccc3)nnn2c2ccsc12 [UT-A1 inhibitor D2]
IC50: > 50 µM

Query IC50 for O=S(=O)(c1ccc(Br)cc1)c1nnn2c1nc(N=S1C=CC=C1)c1sccc12
> 50 µM
